measurement.protocol: Quantitative High-Throughput drug screen in 47 multiple myeloma cell lines against the NCATS MIPE library collection: UTMC2_PLB cell viability assay (AID 1919868); also: nearly all actives have a fitted effect of over 55% in size
conditions: CellTiter-Glo ATP luminescence, 48 h
Results filed as inconclusive are left out. Active and inactive are the calls of the source. Calls follow the shape of the dose curve; as a rule, active = well fitted cell-killing curve with a large enough effect; inconclusive = small, poorly fitted or top-dose-only effect, or effect the other way; inactive = no such curve, though single readings can be large or run the other way.
Possible outcomes: yes (1) for active, no (0) for inactive

{"molecule": "CC[C@H](CO)Nc1nc(NCc2ccccc2)c2ncn(C(C)C)c2n1", "category.label": "yes (1)"}
{"molecule": "Nc1ccccc1NC(=O)c1ccc(CNc2nccc(-c3cccnc3)n2)cc1", "category.label": "yes (1)"}
{"molecule": "OCCCNc1cc(-c2ccnc(Nc3cccc(Cl)c3)n2)ccn1", "category.label": "yes (1)"}
{"molecule": "OCc1ccc(-c2ccc(-c3ccc(CO)s3)o2)s1", "category.label": "yes (1)"}
{"molecule": "CC1(C)CC(=O)c2c(C(F)(F)F)nn(-c3ccc(C(N)=O)c(NC4CCC(OC(=O)CN)CC4)c3)c2C1 (stereo not given)", "category.label": "yes (1)"}
{"molecule": "Cc1cc(CN2CCN(c3c(Br)cnc4nc(-c5ccc(N6CCN(C)CC6)cc5)[nH]c34)CC2)no1", "category.label": "yes (1)"}
{"molecule": "Nc1nccc(Oc2ccc(NC(=O)c3c[nH]cc(-c4ccc(F)cc4)c3=O)cc2F)c1Cl", "category.label": "yes (1)"}
{"molecule": "CNC(=O)c1ccccc1Nc1nc(Nc2ccc(N3CCOCC3)cc2OC)ncc1Cl", "category.label": "yes (1)"}
{"molecule": "c1nc2nc(Nc3ccc(N4CCOCC4)cc3)nc(NC3CCCCC3)c2[nH]1", "category.label": "yes (1)"}
{"molecule": "CCOc1ccccc1OCCNC(C)Cc1ccc(OC)c(S(N)(=O)=O)c1 (stereo not given)", "category.label": "no (0)"}

* * *

Tested on: UISO
measurement.protocol: qHTS assay to identify novel small-molecules to repurpose for Merkel cell carcinoma treatment (AID 1296009); also: nearly all actives have a fitted effect of over 60% in size
conditions: MCC and control cell lines, CellTiter-Glo viability, 72 h; series mostly up to 46 µM
Inconclusive results are not listed. The source made the active and inactive calls. Calls come from the whole dose curve; as a rule, active = well fitted inhibition curve with a large enough effect; inconclusive = small, poorly fitted or top-dose-only effect; inactive = flat fitted curve, though single readings scatter.
Possible outcomes: active, inactive

{"compound": "CN(C1CCc2c(c3ccccc3n2CC(=O)O)C1)S(=O)(=O)c1ccc(F)cc1 (stereo not given)", "category.label": "inactive"}
{"compound": "CC(=O)OCCN1C(=O)c2c(C)nc3ccc(S(=O)(=O)N4CCOCC4)cc3c2C1=O", "category.label": "inactive"}
{"compound": "CC1(O)CC(c2nc(-c3ccc4ccc(-c5ccccc5)nc4c3)c3c(N)nccn23)C1 (stereo not given)", "category.label": "active"}
{"compound": "Cc1cc(Nc2cc(N3CCN(C)CC3)nc(Sc3ccc(NC(=O)C4CC4)cc3)n2)n[nH]1", "category.label": "inactive"}
{"compound": "O=C1CCC[C@@H]2[C@H]3CCC[N+]4([O-])CCC[C@@H](CN12)[C@@H]34 (stereo not given in full)", "category.label": "inactive"}
{"compound": "CC(C)c1nn(-c2c(Cl)cccc2Cl)c2nc(Cc3ccc(OCCO)cc3)[nH]c(=O)c12", "category.label": "active"}
{"compound": "Nc1ccccc1NC(=O)c1ccc(CNC(=O)OCc2cccnc2)cc1", "category.label": "active"}
{"compound": "c1cc(-c2cnn3cc(-c4ccc(OCCN5CCCCC5)cc4)cnc23)ccn1", "category.label": "active"}
{"compound": "COc1cccc(Nc2c(C(N)=O)cnc3c(C)cc(S(=O)(=O)c4cccc(C(=O)N(C)C)c4)cc23)c1", "category.label": "inactive"}
{"compound": "COc1ccc(F)c(F)c1C(=O)c1cnc(NC2CCN(S(C)(=O)=O)CC2)nc1N", "category.label": "active"}
{"compound": "O=C(C=Cc1cccnc1)NCCCCC1CCN(C(=O)c2ccccc2)CC1", "category.label": "active"}
{"compound": "COc1cc2c(Oc3ccc(NC(=O)C4(C(=O)Nc5ccc(F)cc5)CC4)cc3F)ccnc2cc1OCCCN1CCOCC1", "category.label": "active"}
{"compound": "Nc1ncnc2c1c(-c1cnc3[nH]ccc3c1)nn2C1CCCC1", "category.label": "active"}
{"compound": "CN1c2cc(O)c(N=NC(N)=O)cc2CC1S(=O)(=O)O (stereo not given)", "category.label": "inactive"}
{"compound": "Cc1c(CN2CCN(S(C)(=O)=O)CC2)sc2c(N3CCOCC3)nc(-c3cnc(N)nc3)nc12", "category.label": "active"}
{"compound": "CNC(=O)c1ccccc1Nc1nc(Nc2ccc(N3CCOCC3)cc2OC)ncc1Cl", "category.label": "active"}
{"compound": "C1Cc2[nH]nc(-c3nn[nH]n3)c2C1", "category.label": "inactive"}
{"compound": "Cc1nc(Nc2n[nH]c3c2CN(C(=O)N[C@H](CN(C)C)c2ccccc2)C3(C)C)c2sccc2n1", "category.label": "active"}
{"compound": "CS(=O)(=O)N1CCN(Cc2cc3nc(-c4cccc5[nH]ncc45)nc(N4CCOCC4)c3s2)CC1", "category.label": "active"}
{"compound": "Nc1nc(Nc2ccc(S(N)(=O)=O)cc2)nn1C(=O)c1c(F)cccc1F", "category.label": "active"}

* * *

measurement.protocol: qHTS of pediatric cancer cell lines to identify multiple opportunities for drug repurposing: Confirmatory screen for Rh30 cells (AID 1347126); also: nearly all actives have a fitted effect of over 55% in size
conditions: Rh30 rhabdomyosarcoma cell viability; series mostly up to 45.9 µM
Inconclusive results are not listed. Active and inactive are the calls of the source. Calls follow the shape of the dose curve; as a rule, active = well fitted cell-killing curve with a large enough effect; inconclusive = small, poorly fitted or top-dose-only effect, or effect the other way; inactive = no such curve, though single readings can be large or run the other way.
Classes used: Yes = active, No = inactive

{"input.smiles": "COC(=O)Nc1ccc(-c2nc(N3CCOCC3)c3cnn(C4CCN(Cc5cccnc5)CC4)c3n2)cc1", "category.label": "Yes"}
{"input.smiles": "CCn1cc(-c2ccnc3[nH]c(-c4cccc(CN(C)C)c4)cc23)c(-c2ccc(NC(=O)N(C)C)cc2)n1", "category.label": "Yes"}
{"input.smiles": "CNC(=O)CN1CCC(Oc2cc3c(Nc4cccc(Cl)c4F)ncnc3cc2OC)CC1", "category.label": "Yes"}
{"input.smiles": "CC[C@H]1CN2CCc3cc(OC)c(OC)cc3[C@H]2C[C@@H]1C[C@@H]1NCCc2cc(OC)c(OC)cc21", "category.label": "Yes"}
{"input.smiles": "COc1c(OCCCN2CCOCC2)ccc2c3n(c(=NC(=O)c4cnc(N)nc4)nc12)CCN3", "category.label": "Yes"}
{"input.smiles": "CNC(=O)c1ccc(N2C(=S)N(c3cnc(C#N)c(C(F)(F)F)c3)C(=O)C23CCC3)cc1F", "category.label": "No"}
{"input.smiles": "CC(C)(C)c1cc(C(C)(C)C)c(NC(=O)c2c[nH]c3ccccc3c2=O)cc1O", "category.label": "No"}
{"input.smiles": "O=C(Nc1ncc(-c2cc(C(F)F)nn2-c2c(Cl)cccc2Cl)s1)C1CC1", "category.label": "Yes"}
{"input.smiles": "Cc1c(Cn2c(C)nc3c(C(=O)O)cc(N4CCOCC4)cc32)cccc1C(F)(F)F", "category.label": "No"}

* * *

measurement.protocol: qHTS profiling of the MIPE4 collection as inhibitors of Plasmodium falciparum (DD2) proliferation (Rep 2) (AID 743346)
conditions: P. falciparum Dd2 in erythrocytes, SYBR Green DNA, 72 h; at 28.5 µM (top of the series) unless noted
Catalogue of parasite growth, % of control (lower = inhibition) values
property.measured: parasite growth, % of control (lower = inhibition) (%)

{"compound": "Cc1nc2ccc(CN(C)c3ccc(C(=O)N[C@@H](CCC(=O)O)C(=O)O)s3)cc2c(=O)[nH]1", "numeric.value": 54.1}
{"compound": "CC(C)c1nn(-c2c(Cl)cccc2Cl)c2nc(Cc3ccc(OCCO)cc3)[nH]c(=O)c12", "numeric.value": 27.3}
{"compound": "c1cc(-c2cnn3cc(-c4ccc(OCCN5CCCCC5)cc4)cnc23)ccn1", "numeric.value": 10.1}
{"compound": "COc1cc2c(NC3CCN(C(C)C)CC3)nc(C3CCCCC3)nc2cc1OCCCN1CCCC1", "numeric.value": 10.3}
{"compound": "CN(C)CC(C)(C)CNc1nn2c(-c3ccccc3)nnc2cc1C1CCC1", "numeric.value": 40.5}
{"compound": "CCC[C@H](NC(=O)C(C#N)=Cc1cccc(Br)n1)c1ccccc1", "numeric.value": 17.5}
{"compound": "CC(C)c1ccc(Cn2ccc3c4c(N)nc(NC5CC5)nc4ccc32)cc1", "numeric.value": 15.1}
{"compound": "Cc1nc2cnc3ccc(C#Cc4cccnc4)cc3c2n1-c1ccc(C(C)(C)C#N)cc1", "numeric.value": 13.9}
{"compound": "COC(=O)C1=C(C)NC(C)=C(C(=O)OCCN2CCN(C(c3ccccc3)c3ccccc3)CC2)C1c1cccc([N+](=O)[O-])c1 (stereo not given)", "numeric.value": 43.1}

* * *

measurement.protocol: Quantitative High-Throughput drug screen in 47 multiple myeloma cell lines against the NCATS MIPE library collection: ARP1_JJKsccF8 cell viability assay (AID 1918928; also: nearly all actives have a fitted effect of over 40% in size;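 as to viability: 100% = DMSO only wells and 0% = medium only wells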)
conditions: ARP1 myeloma cells viability, CellTiter-Glo ATP, 48 h; series mostly up to 45.8 µM
Inconclusive results are not listed. Calls of active or inactive are those of the source. Calls follow the shape of the dose curve; as a rule, active = well fitted cell-killing curve with a large enough effect; inconclusive = small, poorly fitted or top-dose-only effect, or effect the other way; inactive = no such curve, though single readings can be large or run the other way.
Classes used: active, inactive

{"compound": "Cc1cc(C(=O)N2CCN(c3cccc(Cl)c3)CC2)n(-c2ccccc2)n1", "category.label": "active"}
{"compound": "O=C(Nc1cc(C(F)(F)F)cc(C(F)(F)F)c1)c1cc(Cl)ccc1O", "category.label": "active"}
{"compound": "CC=CC1=C(C(=O)O)N2C(=O)[C@H](NC(=O)[C@H](N)c3ccc(O)cc3)[C@@H]2SC1", "category.label": "inactive"}
{"compound": "CC(C)c1nn(-c2c(Cl)cccc2Cl)c2nc(Cc3ccc(OCCO)cc3)[nH]c(=O)c12", "category.label": "active"}
{"compound": "C[C@@]12O[C@@H](C[C@]1(O)CO)n1c3ccccc3c3c4c(c5c6ccccc6n2c5c31)CNC4=O", "category.label": "active"}
{"compound": "CC1(O)CC(c2nc(-c3ccc4ccc(-c5ccccc5)nc4c3)c3c(N)nccn23)C1 (centres undefined)", "category.label": "active"}
{"compound": "Cc1cc(Nc2cc(NC(=O)c3c(Cl)cccc3Cl)ccn2)nc(N)n1", "category.label": "active"}
{"compound": "CC(C)c1cc(C(=O)N2Cc3ccc(CN4CCN(C)CC4)cc3C2)c(O)cc1O", "category.label": "active"}
{"compound": "Nc1ccn([C@@H]2O[C@H](CO)[C@H](O)C2(F)F)c(=O)n1", "category.label": "active"}

All values here come from PubChem BioAssay (NCATS).
